molecular target: mutant MGL (Homo sapiens, UniProt Q99685, L169S/L176S); construct: purified mutant MGL (mut-MGLL 11-313 L179S L186S); assay: MGL ThermoFluor assay - mutant; type: binding; conditions: 0.07 mg/ml mutant MGL, pH=7.0; read-out: MGL mutant ThermoFluor Kd
Sequence (Q99685 whole entry L169S/L176S): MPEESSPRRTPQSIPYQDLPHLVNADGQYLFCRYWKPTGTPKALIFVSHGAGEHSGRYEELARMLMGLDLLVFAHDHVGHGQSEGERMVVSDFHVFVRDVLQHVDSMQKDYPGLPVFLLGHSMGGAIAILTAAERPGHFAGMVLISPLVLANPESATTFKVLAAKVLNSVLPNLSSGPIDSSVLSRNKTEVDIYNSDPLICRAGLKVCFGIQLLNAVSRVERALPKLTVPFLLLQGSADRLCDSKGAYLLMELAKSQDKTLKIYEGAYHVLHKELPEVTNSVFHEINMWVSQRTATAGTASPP
reportedProperty: log10 Kd (log10 of the value in nM)
Scale: log10; quantity: Kd; unit before log: nM

Sample answers from the record:
Ask: Returns the measured log10 Kd for the input compound. Input: O=C(c1ccc(-c2ccc(C(F)(F)F)s2)cc1)N1CC(C2CCN(C(=O)c3ccc[nH]3)CC2)C1
Result: 1.30

Ask: Returns the measured log10 Kd for the input compound. Input: O=C(c1cccc(-c2cccc(F)c2)c1)N1CC(C2CCN(C(=O)c3ccc[nH]3)CC2)C1
Result: 2.70

Ask: Returns the measured log10 Kd for the input compound. Input: O=C(c1ccc2c(ccn2-c2ccc(Cl)cn2)c1)N1CC(C2CCN(C(=O)c3nccs3)CC2)C1
Result: 0.74

Ask: Returns the measured log10 Kd for the input compound. Input: O=C(c1ccc(-c2ccc(C(F)(F)F)s2)cc1)N1CC(C2CCN(C(=O)c3cscn3)CC2)C1
Result: 1.34

Ask: Returns the measured log10 Kd for the input compound. Input: O=C(c1ccc(-c2cccc(C(F)(F)F)c2)cc1)N1CC(C2CCN(C(=O)c3cscn3)CC2)C1
Result: 1.04

Continuing:
Ask: Returns the measured log10 Kd for the input compound. Input: O=C(c1ccc2c(ccn2-c2ccc(F)c(F)c2)c1)N1CC(C2CCN(C(=O)c3nccs3)CC2)C1
Result: -0.22

Ask: Returns the measured log10 Kd for the input compound. Input: Cc1c(C(=O)N2CCC(C3CN(C(=O)c4nccs4)C3)CC2)sc2cc(C(F)(F)F)ccc12
Result: -0.10

Ask: Returns the measured log10 Kd for the input compound. Input: O=C(c1cscn1)N1CCC(C2CN(C(=O)c3sc4cc(C(F)(F)F)ccc4c3Cl)C2)CC1
Result: 0.40

Ask: Returns the measured log10 Kd for the input compound. Input: O=C(c1cccc(-c2cccc(F)c2)c1)N1CC(C2CCN(C(=O)c3nccs3)CC2)C1
Result: 2.00

Ask: Returns the measured log10 Kd for the input compound. Input: Cc1c(C(=O)N2CCC(C3CN(C(=O)c4cscn4)C3)CC2)sc2cc(C(F)(F)F)ccc12
Result: -0.22

Ask: Returns the measured log10 Kd for the input compound. Input: O=C(c1nccs1)N1CCC(C2CN(C(=O)c3ccc(-c4ccccc4)cc3F)C2)CC1
Result: 0.95

Ask: Returns the measured log10 Kd for the input compound. Input: O=C(c1cscn1)N1CCC(C2CN(C(=O)c3sc4cc(F)ccc4c3Cl)C2)CC1
Result: 1.40

Ask: Returns the measured log10 Kd for the input compound. Input: O=C(c1ccc2nc(-c3ccccc3)oc2c1)N1CC(C2CCN(C(=O)c3nccs3)CC2)C1
Result: 1.05

###

target: mutant MGL (Homo sapiens, UniProt Q99685, L169S/L176S); construct: purified mutant MGL (mut-MGLL 11-313 L179S L186S); assay: MGL ThermoFluor assay - mutant; format: binding; settings: compound concentration measured by qNMR; read-out: MGL mutant ThermoFluor qKd (using qNMR conc.)
reportedProperty: Kd (nM)
All answers are understood in nM, so give the number only.

Sample answers from the record:
Ask: Returns the measured Kd for the input compound. Input: O=C(c1ccc2c(ccn2-c2ccc(F)c(F)c2)c1)N1CCC(C2CN(C(=O)c3cscn3)C2)CC1
Result: 3.3

Ask: Returns the measured Kd for the input compound. Input: O=C(c1ccc2c(ccn2-c2ccc(F)cc2)c1)N1CCC(C2CN(C(=O)c3nccs3)C2)CC1
Result: 2.7

Ask: Returns the measured Kd for the input compound. Input: O=C(c1ccc2c(c1)[nH]c(=O)n2-c1ccc(F)c(F)c1)N1CC(C2CCN(C(=O)c3nccs3)CC2)C1
Result: 43.6

Continuing:
Ask: Returns the measured Kd for the input compound. Input: O=C(c1ccc2c(ccn2-c2ccc(F)cc2)c1)N1CC(C2CCN(C(=O)c3ccc[nH]3)CC2)C1
Result: 24.5

The origin of these recorded values is patent US8513423B2.
